target: SUV39H2 (Homo sapiens (Human), UniProt Q9H5I1); conditions: read-out: IC50 (μM) Suv 39H2 assay; enzyme assay
Sequence (Q9H5I1 whole entry): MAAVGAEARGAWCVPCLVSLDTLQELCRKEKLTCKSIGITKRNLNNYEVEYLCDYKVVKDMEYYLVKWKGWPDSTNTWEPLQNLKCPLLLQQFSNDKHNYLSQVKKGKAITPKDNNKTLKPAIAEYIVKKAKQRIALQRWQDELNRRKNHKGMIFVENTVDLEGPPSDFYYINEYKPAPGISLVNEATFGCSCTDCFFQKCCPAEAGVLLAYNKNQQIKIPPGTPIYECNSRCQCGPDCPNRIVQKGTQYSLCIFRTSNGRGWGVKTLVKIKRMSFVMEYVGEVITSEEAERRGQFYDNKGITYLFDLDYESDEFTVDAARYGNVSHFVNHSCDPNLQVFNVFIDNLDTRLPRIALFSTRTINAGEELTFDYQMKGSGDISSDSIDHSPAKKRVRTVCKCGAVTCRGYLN
Where a name gives a salt, the structure may show the parent alone.
Label Satisfied when IC50 < 0.01 µM; otherwise Not satisfied.

Problem: Hi there! Is IC50 for COc1cc(OC)c(-c2cn3ccc(N4CCCNCC4)cc3n2)cc1Cl [Example 189] below 0.01 µM, do you know?
Solution: Satisfied

Problem: Identify whether the molecule COC(=O)N1CCN(c2ccn3cc(-c4cc(Cl)c(OC)cc4OCCCN(C)C)nc3c2)CC1 [Example 152] records IC50 below 0.01 µM.
Solution: Not satisfied

Problem: Field: below-cutoff. Rule: recorded IC50 strictly less than 0.01 µM. Subject: COc1cc(OC)c(-c2cn3ccc(N4CCC(CCN)CC4)nc3n2)cc1Cl [Example 67]
Solution: Not satisfied

Problem: Check if IC50 falls below 0.01 µM for CCOP(=O)(CCN1CCCN(c2ccn3cc(-c4cc(Cl)c(OC)cc4OC)nc3c2)CC1)OCC [Example 210] .
Solution: Satisfied

Problem: Hello, is IC50 of the following molecule strictly smaller than 0.01 µM? COc1cc(OC)c(-c2cn3ccc(N4CCOCC4)nc3n2)cc1Cl [Example 79, hydrobromide]
Solution: Not satisfied

Problem: hey, is IC50 for COc1cc(OC)c(-c2cn3ccc(N)nc3n2)cc1C#N [Example 46] lower than 0.01 µM or not?
Solution: Not satisfied

Problem: Identify whether the molecule COc1cc(OC)c(-c2cn3ccc(N4CCCC4)nc3n2)cc1Br [Example 3] records IC50 below 0.01 µM.
Solution: Satisfied

Problem: Below 0.01 µM on IC50? Entry COc1cc(OC)c(-c2cn3ccc(N4CCN(CCN5CCCCC5)CC4)cc3n2)cc1Cl [Example 135]
Solution: Not satisfied

----------
molecular target: SUV39H2 (Homo sapiens (Human), UniProt Q9H5I1); test: biochemical; format: biochemical; details: 3H-SAM 100 nM, H3 Histone Peptide 350 nM, room temperature 3 hours
Counter-ions that a name gives are not always drawn.
quantity name: IC50 (nM)
Write it as a number; the unit nM goes unstated.

Problem: Given the entry COc1cc(OC)c(-c2cn3ccc(N4CC[C@H](NCC5CCN(C(=O)OC(C)(C)C)CC5)C4)cc3n2)cc1Cl , report its measured IC50.
Solution: 7.15

Problem: Report IC50 for COc1cc(OC)c(-c2cn3ccc(N4CCN(C(=O)CCCCNC(=O)OC(C)(C)C)CC4)cc3n2)cc1Cl please.
Solution: 10.5

Problem: Recorded IC50 of COc1cc(OC)c(-c2cn3ccc(N4CCCN(c5cncnc5)CC4)cc3n2)cc1Cl , please.
Solution: 13.8

Problem: Tell me the measured IC50 of COc1cc(OC)c(-c2cn3ccc(N4CCN(c5ncc(N)cn5)CC4)cc3n2)cc1Cl [Example 422, hydrochloride] , please.
Solution: 11.2

Problem: Quick one: IC50 for COc1cc(OC)c(-c2cn3ccc(N4CCCN(CC5CCCCC5)CC4)cc3n2)cc1Cl ?
Solution: 6.46

Problem: Recorded IC50 of COc1cc(OC)c(-c2cn3ccc(N4CCN(c5nccc(N6CCC(N)C6)n5)CC4)cc3n2)cc1Cl (stereo not drawn) , please.
Solution: 15.3

Hello, the source for this data is patent US10508109B2, in case you need it.
